Target: SGLT1 (Homo sapiens, UniProt P13866)
Assay: SGLT1 activity measurement: 14C-AMG uptake in BHK cells transfected with SGLT1
Settings: AMG 50 μM, 37° C., 90 min
Entries and their IC50 values follow.

[[record]]
structure_string = "CCc1cc(OC)cc(OCC(N)=O)c1-c1nc2ccc(F)cn2c1Nc1c(F)cccc1F"
experimental_endpoint = "IC50"
recorded_measurement = "1 to 10 µM"

[[record]]
structure_string = "COc1cc(C)c(-c2nc3ccc(F)cn3c2Nc2c(Br)cc(C)cc2Br)c(OCC(N)=O)c1"
experimental_endpoint = "IC50"
recorded_measurement = "0.01 to 1 µM"

[[record]]
structure_string = "CCc1cc(OCCOC)cc(OCC(N)=O)c1-c1nc2ccc(F)cn2c1Nc1c(C)cccc1C"
experimental_endpoint = "IC50"
recorded_measurement = "> 10 µM"


Note: attention shifts to another entry.
# input compound: CCc1cccc(OCC(N)=O)c1-c1nc2ccc(F)cn2c1Nc1c(C)cccc1C ; wanted: its IC50
1 to 10 µM

----------
Entries and their IC50 values follow.
Biological target: SGLT1 (Homo sapiens)
Experiment: SGLT1 activity measurement: 14C-AMG uptake in BHK cells transfected with SGLT1
Details: AMG 50 μM, 37° C., 90 min

Answered cases to consult:
[[record]]
structure_string = "CCc1cc(OC)cc(OCC(N)=O)c1-c1nc2ccc(F)cn2c1Nc1c(C)cc(F)cc1C"
experimental_endpoint = "IC50"
recorded_measurement = "1 to 10 µM"

[[record]]
structure_string = "COc1ccc(-c2nc3ccc(F)cn3c2Nc2c(C)cccc2C)c(OCC(N)=O)c1"
experimental_endpoint = "IC50"
recorded_measurement = "> 10 µM"

[[record]]
structure_string = "Cc1cccc(C)c1Nc1c(-c2c(C)cc(O)cc2OCC(N)=O)nc2ccccn12"
experimental_endpoint = "IC50"
recorded_measurement = "> 10 µM"

[[record]]
structure_string = "COc1cc(C)c(-c2nc3ccc(F)cn3c2Nc2c(C)cccc2OC)c(OCC(N)=O)c1"
experimental_endpoint = "IC50"
recorded_measurement = "> 10 µM"

[[record]]
structure_string = "Cc1cccc(C)c1Nc1c(-c2c(C)cc(OCc3ccccc3)cc2OCC(N)=O)nc2ccccn12"
experimental_endpoint = "IC50"
recorded_measurement = "> 10 µM"


# input compound: COc1cc(C)c(-c2nc3ccc(F)cn3c2Nc2c(C)ccc(Cl)c2C)c(OCC(N)=O)c1 ; wanted: its IC50
1 to 10 µM

# input compound: COc1cc(C)c(-c2nc3ccc(F)cn3c2Nc2c(F)cccc2Br)c(OCC(N)=O)c1 ; wanted: its IC50
1 to 10 µM

----------
Entries and their pIC50 values follow.
Target: SGLT1 (Homo sapiens)
Assay: SGLT1 activity measurement: 14C-AMG uptake in BHK cells transfected with SGLT1
Conditions: AMG 50 μM, 37° C., 90 min
pIC50: −log10 of the molar value.

Answered cases to consult:
[[record]]
compound = "CCc1cc(OC)cc(OCC(N)=O)c1-c1nc2ccc(F)cn2c1Nc1c(C)cc(C(=O)OC)cc1C [Compound A245]"
recorded_measurement = "< 5.00"

[[record]]
compound = "COc1cc(C)c(-c2nc3ccc(F)cn3c2Nc2c(C)cc([N+](=O)[O-])cc2C)c(OCC(N)=O)c1 [Compound A254]"
recorded_measurement = "< 5.00"

[[record]]
compound = "Cc1cccc(C)c1Nc1c(-c2c(C)cc(OCCO)cc2OCC(N)=O)nc2ccc(F)cn12 [Compound A186]"
recorded_measurement = "< 5.00"

[[record]]
compound = "Cc1cccc(C)c1Nc1c(-c2ccccc2OCC(N)=O)nc2c(C)cccn12 [Compound A8]"
recorded_measurement = "< 5.00"

[[record]]
compound = "COc1cc(C)c(-c2nc3ccc(F)cn3c2Nc2c(C)cc(Br)c(C)c2Br)c(OCC(N)=O)c1 [Compound A249]"
recorded_measurement = "5.00 to 6.00"


# input compound: COc1ccc(-c2nc3ccccn3c2Nc2c(C)cccc2C)c(OCC(N)=O)c1 [Compound A14] ; wanted: its pIC50
< 5.00

----------
Biological target: SGLT1 (Homo sapiens)
Experiment: SGLT1 activity measurement: 14C-AMG uptake in BHK cells transfected with SGLT1
Conditions: AMG 50 μM, 37° C., 90 min
experimental.endpoint: IC50

Answered cases to consult:
[[record]]
structure_string = "Cc1cccc(Cl)c1Nc1c(-c2ccccc2OCC(N)=O)nc2ccccn12"
experimental_endpoint = "IC50"
recorded_measurement = "> 10 µM"

[[record]]
structure_string = "Cc1cccc(C)c1Nc1c(-c2c(C)cc(OCC(N)=O)cc2OCC(N)=O)nc2ccccn12"
experimental_endpoint = "IC50"
recorded_measurement = "1 to 10 µM"

[[record]]
structure_string = "COc1cc(C)c(-c2nc3c(F)cc(F)cn3c2Nc2c(Cl)cccc2Cl)c(OCC(N)=O)c1"
experimental_endpoint = "IC50"
recorded_measurement = "1 to 10 µM"

[[record]]
structure_string = "COc1cc(C)c(-c2nc3ccc(F)cn3c2Nc2c(F)cc(F)cc2F)c(OCC(N)=O)c1"
experimental_endpoint = "IC50"
recorded_measurement = "1 to 10 µM"

[[record]]
structure_string = "COc1cc(C)c(-c2nc3cccc(C)n3c2Nc2c(C)cccc2C)c(OCC(N)=O)c1"
experimental_endpoint = "IC50"
recorded_measurement = "> 10 µM"

[[record]]
structure_string = "Cc1cccc(C)c1Nc1c(-c2c(O)cccc2OCC(N)=O)nc2ccc(F)cn12"
experimental_endpoint = "IC50"
recorded_measurement = "> 10 µM"

[[record]]
structure_string = "COc1cc(C)c(-c2nc3ccc(F)cn3c2Nc2c(Br)cccc2Br)c(OCC(N)=O)c1"
experimental_endpoint = "IC50"
recorded_measurement = "> 10 µM"

[[record]]
structure_string = "CCc1cc(OC)cc(OCC(N)=O)c1-c1nc2ccc(F)cn2c1Nc1c(C)cccc1C(F)(F)F"
experimental_endpoint = "IC50"
recorded_measurement = "> 10 µM"


# input molecule: COc1cc(C)c(-c2nc3ccccn3c2Nc2c(Cl)cc(F)cc2Cl)c(OCC(N)=O)c1 ; wanted: its IC50
1 to 10 µM

----------
Molecular target: SGLT1 (Homo sapiens)
Assay: SGLT1 activity measurement: 14C-AMG uptake in BHK cells transfected with SGLT1
Conditions: AMG 50 μM, 37° C., 90 min
experimental.endpoint: IC50

[[record]]
compound = "CCc1cc(O)cc(OCC(N)=O)c1-c1nc2ccc(F)cn2c1Nc1c(C)cccc1C"
recorded_measurement = "1 to 10 µM"

[[record]]
compound = "Cc1cccc(C)c1Nc1c(-c2c(C)cc(OCC(N)=O)cc2OCC(N)=O)nc2ccc(F)cn12"
recorded_measurement = "> 10 µM"

[[record]]
compound = "COc1cccc(OCC(N)=O)c1-c1nc2ccc(F)cn2c1Nc1c(C)cccc1C"
recorded_measurement = "1 to 10 µM"

[[record]]
compound = "CCc1cc(OC)cc(OCC(N)=O)c1-c1nc2ccccn2c1Nc1c(C)cc(F)cc1C"
recorded_measurement = "1 to 10 µM"

[[record]]
compound = "CCc1cc(OC)cc(OCC(N)=O)c1-c1nc2ccc(F)cn2c1Nc1c(C)ccc(Cl)c1C"
recorded_measurement = "1 to 10 µM"

[[record]]
compound = "Cc1cccc(C)c1Nc1c(-c2c(O)cccc2OCC(N)=O)nc2ccccn12"
recorded_measurement = "> 10 µM"


# input compound: Cc1cccc(C(C)C)c1Nc1c(-c2ccccc2OCC(N)=O)nc2ccccn12 ; wanted: its IC50
> 10 µM

# input compound: COc1cc(C)c(-c2nc3c(F)cc(F)cn3c2Nc2c(C)cc(F)cc2C)c(OCC(N)=O)c1 ; wanted: its IC50
1 to 10 µM

# input compound: COc1cc(OC)c(-c2nc3ccc(F)cn3c2Nc2c(C)cccc2C)c(OCC(N)=O)c1 ; wanted: its IC50
> 10 µM

----------
Target: UniProtKB P13866
Sequence (P13866 1-664): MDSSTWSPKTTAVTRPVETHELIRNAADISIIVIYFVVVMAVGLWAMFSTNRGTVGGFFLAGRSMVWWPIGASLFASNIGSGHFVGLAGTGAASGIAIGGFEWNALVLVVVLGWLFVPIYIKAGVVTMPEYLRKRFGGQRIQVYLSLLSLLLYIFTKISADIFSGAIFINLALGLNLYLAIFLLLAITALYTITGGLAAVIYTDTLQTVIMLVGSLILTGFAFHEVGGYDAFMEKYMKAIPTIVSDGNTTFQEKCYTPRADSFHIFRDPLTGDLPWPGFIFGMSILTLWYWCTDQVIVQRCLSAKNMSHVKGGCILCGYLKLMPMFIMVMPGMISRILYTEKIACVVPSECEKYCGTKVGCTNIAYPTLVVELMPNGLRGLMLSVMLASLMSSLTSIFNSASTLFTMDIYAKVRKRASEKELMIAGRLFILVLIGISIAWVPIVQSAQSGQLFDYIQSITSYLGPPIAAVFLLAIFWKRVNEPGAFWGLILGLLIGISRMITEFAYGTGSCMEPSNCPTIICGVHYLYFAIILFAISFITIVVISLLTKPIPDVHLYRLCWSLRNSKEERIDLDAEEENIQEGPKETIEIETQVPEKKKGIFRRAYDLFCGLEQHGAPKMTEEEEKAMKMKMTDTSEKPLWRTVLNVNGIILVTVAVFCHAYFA
Assay: SGLT1 activity measurement: 14C-AMG uptake in BHK cells transfected with SGLT1
Details: AMG 50 μM, 37° C., 90 min
experimental.endpoint: IC50

Answered cases to consult:
[[record]]
compound = "COCCOc1cc(C)c(-c2nc3ccc(F)cn3c2Nc2c(C)cccc2C)c(OCC(N)=O)c1 [Compound A184]"
experimental_endpoint = "IC50"
recorded_measurement = "> 10 µM"

[[record]]
compound = "Cc1cccc(C)c1Nc1c(-c2ccccc2OCC(N)=O)nc2cc(C#N)ccn12 [Compound A210]"
experimental_endpoint = "IC50"
recorded_measurement = "> 10 µM"

[[record]]
compound = "COc1cc(C)c(-c2nc3ccc(F)cn3c2Nc2c(C)cc(C)cc2[N+](=O)[O-])c(OCC(N)=O)c1 [Compound A250]"
experimental_endpoint = "IC50"
recorded_measurement = "> 10 µM"

[[record]]
compound = "COc1cc(OC)c(-c2nc3ccc(F)cn3c2Nc2c(C)cc(F)cc2C)c(OCC(N)=O)c1 [Compound A200]"
experimental_endpoint = "IC50"
recorded_measurement = "> 10 µM"

[[record]]
compound = "Cc1cc(C)c(-c2nc3ccccn3c2Nc2c(C)cccc2C)c(OCC(N)=O)c1 [Compound A168]"
experimental_endpoint = "IC50"
recorded_measurement = "> 10 µM"

[[record]]
compound = "Cc1cccc(C)c1Nc1c(-c2c(C)cccc2OCC(N)=O)nc2ccc(F)cn12 [Compound A2]"
experimental_endpoint = "IC50"
recorded_measurement = "1 to 10 µM"

[[record]]
compound = "CCc1cc(OC)cc(OCC(N)=O)c1-c1nc2ccc(F)cn2c1Nc1c(C)cccc1Cl [Compound A257]"
experimental_endpoint = "IC50"
recorded_measurement = "1 to 10 µM"


Note: attention shifts to another entry.
# input compound: CCc1cccc2nc(-c3ccccc3OCC(N)=O)c(Nc3c(C)cccc3C)n12 [Compound A13] ; wanted: its IC50
1 to 10 µM
